- Target Or System: G-protein coupled receptor 84 (Homo sapiens, UniProt Q9NQS5)
- Sequence (Q9NQS5 whole entry): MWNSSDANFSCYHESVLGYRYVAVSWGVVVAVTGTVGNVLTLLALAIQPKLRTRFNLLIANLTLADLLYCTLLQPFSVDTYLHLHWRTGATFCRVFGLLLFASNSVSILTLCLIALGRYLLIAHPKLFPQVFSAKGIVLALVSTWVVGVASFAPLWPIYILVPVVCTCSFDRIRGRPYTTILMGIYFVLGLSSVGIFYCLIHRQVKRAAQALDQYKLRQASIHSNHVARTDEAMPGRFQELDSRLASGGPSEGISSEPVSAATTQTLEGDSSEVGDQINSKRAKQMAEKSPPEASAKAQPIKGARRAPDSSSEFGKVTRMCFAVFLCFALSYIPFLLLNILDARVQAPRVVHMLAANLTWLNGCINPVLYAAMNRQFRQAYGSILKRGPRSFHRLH
- Assay Protocol: Antagonist activity at human GPR84 expressed in HEK293 cells co-expressing Galpha16 assessed as inhibition of 6-OAU induced calcium response incubated for 10 mins by calcium mobilization assay
pIC50: −log10 of the molar value.
Endpoint Name: pIC50

1. CCOCCOCCOP(=O)(O)OC1=Cc2ccccc2Sc2c(OC)cccc21 :: 4.66
2. COc1cccc2c1Sc1ccccc1C=C2OP(=O)(O)Oc1cccc2ccccc12 :: 6.89
3. CCCCCCOP(=O)(O)OC1=Cc2ccccc2Sc2c(OC)cccc21 :: 6.49
4. COc1cccc2c1Sc1ccccc1C=C2OP(=O)(O)OC12CC3CC(C)(CC(C)(C3)C1)C2 :: 6.90
5. CCCCCCCCCOP(=O)(O)OC1=Cc2ccccc2Sc2c(OC)cccc21 :: 6.71
6. COc1cccc2c1Sc1ccccc1C=C2OP(=O)(O)OC1CCC(C)CC1 (stereo not given) :: 5.40
7. COc1cccc2c1Sc1ccccc1C=C2OP(=O)(O)OC1CCCCC1C (stereo not given) :: 5.76
8. COc1cccc2c1Sc1ccccc1C=C2OP(=O)(O)Oc1ccc2ccccc2c1 :: 6.22
9. CCCCCCCCP(=O)(O)OC1=Cc2ccccc2Sc2c(OC)cccc21 :: 6.66
10. CC1(C)[C@@H]2CC[C@@](C)(C2)[C@@H]1OP(=O)(O)O[C@@H]1C(C)(C)[C@@H]2CC[C@@]1(C)C2 :: 4.53

###

- Assay Protocol: Drug distribution in mouse liver at 5 mg/kg, po administered as single dose and measured after 0.5 hrs by LC-MS analysis
- Format: ADME, organism-based
- Assay Conditions: read-out: Drug uptake
Endpoint Name: concentration at 0.5 h (ng/g)

1. O=P([O-])(OC1=Cc2c(Cl)cccc2Sc2ccccc21)OC1=Cc2c(Cl)cccc2Sc2ccccc21.[Na+] :: 297

###

- Assay Protocol: Drug distribution in mouse lung at 5 mg/kg, po administered as single dose and measured after 2 hrs by LC-MS analysis
- Format: ADME, organism-based
- Assay Conditions: read-out: Drug uptake
Endpoint Name: concentration at 2 h (ng/g)

1) O=P([O-])(OC1=Cc2c(Cl)cccc2Sc2ccccc21)OC1=Cc2c(Cl)cccc2Sc2ccccc21.[Na+] :: 60.5

###

- Assay Protocol: Drug distribution in mouse liver at 5 mg/kg, po administered as single dose and measured after 2 hrs by LC-MS analysis
- Format: ADME, organism-based
- Assay Conditions: read-out: Drug uptake
Endpoint Name: concentration at 2 h (ng/g)

1. O=P([O-])(OC1=Cc2c(Cl)cccc2Sc2ccccc21)OC1=Cc2c(Cl)cccc2Sc2ccccc21.[Na+] :: 1960

###

- Assay Protocol: AUClast in ICR mouse at 5 mg/kg, po administered as single dose
- Format: ADME, organism-based
- Set-up: dose 5 mg/kg, route po
- Assay Conditions: in vivo
Endpoint Name: AUC(0-t) (ng·h/mL)

1. O=P([O-])(OC1=Cc2c(Cl)cccc2Sc2ccccc21)OC1=Cc2c(Cl)cccc2Sc2ccccc21.[Na+] :: 502

###

- Assay Protocol: Drug distribution in mouse brain at 5 mg/kg, po administered as single dose and measured after 0.5 hrs by LC-MS analysis
- Assay type: ADME, organism-based
- Assay Conditions: read-out: Drug uptake
Endpoint Name: concentration at 0.5 h (ng/g)

1) O=P([O-])(OC1=Cc2c(Cl)cccc2Sc2ccccc21)OC1=Cc2c(Cl)cccc2Sc2ccccc21.[Na+] :: 6.8

###

- Assay Protocol: Drug distribution in mouse lung at 5 mg/kg, po administered as single dose and measured after 8 hrs by LC-MS analysis
- Format: ADME, organism-based
- Assay Conditions: read-out: Drug uptake
Endpoint Name: concentration at 8 h (ng/g)

1. O=P([O-])(OC1=Cc2c(Cl)cccc2Sc2ccccc21)OC1=Cc2c(Cl)cccc2Sc2ccccc21.[Na+] :: 26.1

###

- Assay Protocol: Drug distribution in mouse plasma at 5 mg/kg, po administered as single dose and measured after 2 hrs by LC-MS analysis
- Format: ADME, organism-based
Endpoint Name: concentration at 2 h (µg/mL)

1. O=P([O-])(OC1=Cc2c(Cl)cccc2Sc2ccccc21)OC1=Cc2c(Cl)cccc2Sc2ccccc21.[Na+] :: 0.393

###

- Assay Protocol: Aqueous solubility of the compound incubated overnight by HPLC-DAD analysis
- Format: physicochemical
- Assay Conditions: aqueous medium
Endpoint Name: solubility (µg/mL)

1) O=P([O-])(OC1=Cc2c(Cl)cccc2Sc2ccccc21)OC1=Cc2c(Cl)cccc2Sc2ccccc21.[Na+] :: 891

###

- Assay Protocol: Drug distribution in mouse liver at 5 mg/kg, po administered as single dose and measured after 8 hrs by LC-MS analysis
- Assay type: ADME, organism-based
- Assay Conditions: read-out: Drug uptake
Endpoint Name: concentration at 8 h (ng/g)

1) O=P([O-])(OC1=Cc2c(Cl)cccc2Sc2ccccc21)OC1=Cc2c(Cl)cccc2Sc2ccccc21.[Na+] :: 1180

###

- Assay Protocol: Drug distribution in mouse brain at 5 mg/kg, po administered as single dose and measured after 2 hrs by LC-MS analysis
- Type: ADME, organism-based
- Assay Conditions: read-out: Drug uptake
Endpoint Name: concentration at 2 h (ng/g)

1. O=P([O-])(OC1=Cc2c(Cl)cccc2Sc2ccccc21)OC1=Cc2c(Cl)cccc2Sc2ccccc21.[Na+] :: 6.3

The values you see were collected from ChEMBL document CHEMBL5380862.
